# Tested on: HOP-62 NSCLC
# measurement.protocol: NCI tumour cell line growth inhibition, 48 h
assay.endpoint: TGI

Determine from records and report TGI for CC(C)(C)c1ccc(-c2nnc(-c3cc(C#N)cc(-c4nnc(-c5ccc(C(C)(C)C)cc5)o4)c3)o2)cc1
> 100 µM

Determine from records and report TGI for CNc1ccc(S(=O)Nc2ccccc2)cc1 (stereo not given)
> 100 µM

Determine from records and report TGI for CCCC(=O)Nc1cc(/C=C/C(=O)N2CC(CCl)c3ccc(N)cc32)n(C)c1 (stereo not given)
> 100 µM

Determine from records and report TGI for O=S1(=O)CCN(c2ccccc2CC(c2c[nH]c3ccccc23)c2c[nH]c3ccccc23)CC1
35.7 µM

Determine from records and report TGI for c1ccc([P+](c2ccccc2)(c2ccccc2)c2ccc([P+](c3ccccc3)(c3ccccc3)c3ccccc3)cc2)cc1
> 100 µM

Cited source for all entries: PubChem BioAssay (NCI)
